TEST SYSTEM: Adenosine receptor A2a (Homo sapiens, UniProt P29274)
Sequence (P29274 whole entry): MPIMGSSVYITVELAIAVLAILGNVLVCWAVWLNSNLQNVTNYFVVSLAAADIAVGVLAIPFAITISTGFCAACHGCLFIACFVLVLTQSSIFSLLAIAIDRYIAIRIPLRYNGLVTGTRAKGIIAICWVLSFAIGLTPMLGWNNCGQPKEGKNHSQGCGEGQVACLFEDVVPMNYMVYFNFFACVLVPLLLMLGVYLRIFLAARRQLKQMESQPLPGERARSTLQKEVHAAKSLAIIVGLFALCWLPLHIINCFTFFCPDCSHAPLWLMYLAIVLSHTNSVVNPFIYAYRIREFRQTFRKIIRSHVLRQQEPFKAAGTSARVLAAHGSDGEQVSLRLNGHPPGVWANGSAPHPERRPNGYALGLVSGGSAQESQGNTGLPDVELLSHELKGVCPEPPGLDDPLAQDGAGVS

COMPOUND STRUCTURE	IC50
Nc1nc2c(-c3ccco3)nc(NC(=O)C3CC3)cn2n1	< 10 nM
